Where do the numbers come from? From PubChem BioAssay (NCI).

Test system: MDA-MB-231 breast
Method: NCI-60 one-dose screen, 48 h (100 = growth as untreated, 0 = no growth, -100 = all killed)
Conditions used: 10 µM unless noted
Compounds without any hit were thinned out: in the full panel of roughly 83,000, 20% have a hit.
Please respond with Criterion met when measured growth is strictly beneath 80%, and with Criterion not met in all other cases.

INSERT INTO results (compound, qualitative_label) VALUES
  ('C[C@]12CC[C@@H]3c4cc(O)c(O)cc4CC[C@H]3[C@@H]1CC[C@@H]2O', 'Criterion met'),
  ('COc1ccc(Cn2cc(COc3cc(/C=C/C(=O)c4cc(OC)c(OC)c(OC)c4)ccc3OC)nn2)cc1', 'Criterion not met'),
  ('Cc1cc(-c2ccccc2)c(C)n1Cc1ccc(Cl)cc1', 'Criterion met'),
  ('COC1=CC(c2ccc[nH]2)=N/C1=C\c1[nH]c(C)c(CCCn2cc(CCCCCCCCC[C@@H]3Cc4cc(O)ccc4C4CC[C@]5(C)[C@@H](O)CC[C@H]5C43)nn2)c1C (stereo not given in full)', 'Criterion met'),
  ('CCSc1nnc(Nc2ccc(C(C)C)cc2)s1', 'Criterion not met'),
  ('O=S(=O)(NCCCNc1nccc(-c2c(-c3ccc(F)c(O)c3)nc3sccn23)n1)c1ccc(Cl)cc1', 'Criterion met'),
  ('ClC1=C(Cl)C(Cl)=C(Cl)C1=Cc1ccc(Cl)cc1Cl', 'Criterion met'),
  ('COc1cc2nc(N3CCC[C@@H](NC4=CC(=O)c5ccccc5C4=O)C3)nc(N)c2cc1OC', 'Criterion met'),
  ('COc1ccc(OC)c(C(=O)c2oc3ccc(Br)cc3c2N)c1', 'Criterion met'),
  ('CCN1C(=O)N(CC)C2Nn3c(s/c(=C4\C(=O)N(C5CCCC5)c5ccccc54)c3=O)=NC21 (stereo not given)', 'Criterion met'),
  ('COc1ncc(-c2ccc3ncnc(Nc4cccc(Cl)c4)c3c2)cc1N(S(C)(=O)=O)S(C)(=O)=O', 'Criterion met'),
  ('CCN(CC)CCC(=O)c1cccc2ccccc12', 'Criterion not met'),
  ('COc1cc(OC)c(C(=O)/C=C/c2cccc(C(F)(F)F)c2)c(OC)c1', 'Criterion met'),
  ('Cc1sc(N=Nc2ccc(N(C)C)cc2)[n+]([O-])c1C', 'Criterion not met'),
  ('N#CC1=C(N)OC2=C(C(=O)CCC2)C1c1ccco1 (stereo not given)', 'Criterion not met'),
  ('Cc1ccc(Nc2ncnc3c2sc2ncccc23)cc1', 'Criterion not met'),
  ('O=C1NC(Cc2c[nH]c3ccccc23)C(=O)N1Cc1ccc(Cl)cc1 (stereo not given)', 'Criterion not met'),
  ('COc1ccc(NC(=O)CSc2nc3ccc(Cl)cc3c(=O)n2-c2ccccc2C(F)(F)F)c(OC)c1OC', 'Criterion met'),
  ('CCN(CC)c1cc(/C=C/c2ccc(OC)c(OC)c2)nc2cc(F)c(F)cc12', 'Criterion met');

---

System: A498 renal
Method: NCI-60 one-dose screen, 48 h (100 = growth as untreated, 0 = no growth, -100 = all killed)
Conditions used: 10 µM unless noted
This is part of a sample that, as a whole, favours compounds with a hit. Of some 83,000 tested, about 20% had one in any assay.
Property label: growth (%)

INSERT INTO measurements (given_smiles, result_value) VALUES
  ('Clc1ccc(-c2nc(-c3ccco3)cn3ccnc23)cc1', 36.8),
  ('CCOC(=O)CC/C(C)=N\Nc1ccc([N+](=O)[O-])cc1', 85.1),
  ('COc1ccc(NC(=S)/N=c2\oc3c(OC)cccc3cc2-c2cc3ccccc3[nH]2)cc1', 87.9),
  ('C=C1C(=O)O[C@H]2[C@H]1CC/C(COC(=O)NCc1ccc(OC)cc1)=C\CC[C@@]1(C)O[C@@H]21', 89.4),
  ('Nc1cc2c(cc1N)-c1cc(N)c(N)cc1C2', 63.5),
  ('CCSc1nnc(NC(=O)COc2ccc(Cl)cc2C)s1', 109),
  ('COC(=O)CCCCCN=Cc1c(O)c(O)c(C(C)C)c2cc(C)c(-c3c(C)cc4c(C(C)C)c(O)c(O)c(C=NCCCCCC(=O)OC)c4c3O)c(O)c12', 35.1),
  ('Nc1ccccc1C#C/C=C\C#Cc1cccc(O)c1', 78.6),
  ('O=S(=O)(NCCCNc1cc(-c2cn(-c3ccccc3)nc2-c2cccc(O)c2)ccn1)c1cccc2ccccc12', 43.6),
  ('O=S=Nc1ccc([N+](=O)[O-])cc1', 79.2);

---

System: SF-295 CNS
Method: NCI-60 one-dose screen, 48 h (100 = growth as untreated, 0 = no growth, -100 = all killed)
Conditions used: 10 µM unless noted
About 83,000 compounds went through this panel and 20% of them were active in at least one assay; those are over-represented in the sample as a whole.
# Lookup of reported growth keyed by entry
Property label: growth (%)

INSERT INTO results (compound, property_label, result_value) VALUES
  ('O=C1OC(c2ccccc2)=N/C1=C\c1ccc([N+](=O)[O-])cc1', 'growth', 103),
  ('CCCCCCCN(CCCCCCC)C(=N)c1ccc(OC)c2ccccc12', 'growth', -89.9),
  ('O=C(OCCCCOC(=O)n1cnc2ccccc21)n1cnc2ccccc21', 'growth', 98.3),
  ('COc1ccc(C(=O)c2cc(OC)c(OC)c(OC)c2)cc1/C=C/C(=O)c1ccc(OC)c(OC)c1', 'growth', -46.2),
  ('C/C(=C\c1csc(C)n1)[C@@H]1C[C@@H]2O[C@]2(C)CCC[C@H](C)[C@H](O)[C@@H](C)C(=O)C(C)(C)[C@@H](O)CC(=O)N1', 'growth', -64.6),
  ('O=C(CCCn1c2c(sc3ccccc32)c(=O)n2nnc(-c3ccccc3)c12)NCCc1cnc[nH]1', 'growth', -42.6),
  ('NC(=O)NNC(=O)c1ccccc1', 'growth', 106),
  ('COc1cc(C(=O)CCCl)ccc1O', 'growth', 100),
  ('O=C(CCl)NCCNc1nccc(Nc2ccc(S(=O)(=O)Nc3ccccn3)cc2)n1', 'growth', 36.2),
  ('CCCCCCCCCCCCOB(OCCCCCCCCCCCC)OCCCCCCCCCCCC', 'growth', 104),
  ('COC1=CC(c2ccc[nH]2)=N/C1=C\c1[nH]c(C)c(C(=O)CCC(=O)Oc2ccc3c(c2)CCC2C3CC[C@]3(C)[C@@H](O)CC[C@@H]23)c1C (stereo not given in full)', 'growth', 20.3),
  ('C[C@]12CC[C@@H]3c4cc(O)c(O)cc4CC[C@H]3[C@@H]1CC[C@@H]2O', 'growth', 35),
  ('COc1cc(C2C=C(C)N=C3SC=CN32)cc(OC)c1OC (stereo not given)', 'growth', 108),
  ('COC(=O)c1cc(-c2cccs2)c(C#N)c(N)c1C#N', 'growth', 103),
  ('COC1=CC(c2ccc[nH]2)=N/C1=C\c1[nH]c(C)c(C(=O)CCCCC(=O)Nc2ccccc2)c1C', 'growth', -2.61),
  ('Cc1cccc2cc(/C=C/C(=O)/C=C/c3ccc(Cl)cc3)c(=O)[nH]c12', 'growth', 83.8),
  ('CCCCNC(=O)NS(=O)(=O)c1ccc(N2N=C(c3ccc(C)cc3C)CC2c2ccc(OC)cc2)cc1 (stereo not given)', 'growth', 41.6),
  ('COc1ccc(-c2nc(-c3ccccc3)c(-c3ccccc3)n2C2CC2)cc1OC1CCCCC1', 'growth', 54.8),
  ('COc1ccc(/C=c2\sc3n(c2=O)C2C(NN=3)N(C)C(=O)N2C)cc1 (stereo not given)', 'growth', -7.19),
  ('COC1=CC(c2ccc[nH]2)=N/C1=C\c1[nH]c(C)c(C(=O)CCCCC(=O)NCc2ccccc2)c1C', 'growth', 51.2);

---

Tested on: SK-MEL-5 melanoma
Method: NCI-60 one-dose screen, 48 h (100 = growth as untreated, 0 = no growth, -100 = all killed)
Conditions used: 10 µM unless noted
About 83,000 compounds went through this panel and 20% of them were active in at least one assay; those are over-represented in the sample as a whole.
Property label: growth (%)

INSERT INTO assay_data (compound, target_or_system, property_label, scale_unit, result_value) VALUES
  ('COc1cccc2cc(-c3cc4ccccc4[nH]3)/c(=N/C(=S)Nc3ccccc3)oc12', 'SK-MEL-5 melanoma', 'growth', '%', 76.1),
  ('CC(CCc1ccccc1)NC(=O)c1n[nH]c(=O)c2ccccc12 (stereo unspecified)', 'SK-MEL-5 melanoma', 'growth', '%', 98.9),
  ('CCN1C(=S)N(CC)C2Nn3c(s/c(=C4\C(=O)N(C)c5ccccc54)c3=O)=NC21 (stereo unspecified)', 'SK-MEL-5 melanoma', 'growth', '%', 19.6),
  ('CN1CCN(CCCOc2ccc3nc(Nc4ccc(C(F)(F)F)c(Cl)c4)ccc3c2)CC1', 'SK-MEL-5 melanoma', 'growth', '%', 34.1),
  ('C=CC(=O)N[C@H](/C=C/C(=O)OCC)Cc1ccc(-c2cc(Cl)cc(Cl)c2)cc1', 'SK-MEL-5 melanoma', 'growth', '%', 72.8),
  ('O=C(c1ccncc1)N1N=C(c2ccc(Cl)cc2)CC1c1c[nH]c2ccccc12 (stereo unspecified)', 'SK-MEL-5 melanoma', 'growth', '%', 93.3),
  ('CC1Cc2c(N(C)C)ncnc2N(C)c2ccc(Cl)cc21 (stereo unspecified)', 'SK-MEL-5 melanoma', 'growth', '%', 11.1),
  ('Oc1ccc(N=Cc2ccccc2)cc1', 'SK-MEL-5 melanoma', 'growth', '%', 83.4),
  ('CCOC(=O)CC/C(C)=N\Nc1ccc([N+](=O)[O-])cc1', 'SK-MEL-5 melanoma', 'growth', '%', 54.3),
  ('O=C(CCCn1c(=O)c2sc3ccccc3c2n2nnc(-c3ccccc3)c12)NCCc1cnc[nH]1', 'SK-MEL-5 melanoma', 'growth', '%', -69.6),
  ('CCCOC(=O)C1(O)CCCC1', 'SK-MEL-5 melanoma', 'growth', '%', 99.4);
